Entry source: ChEMBL document CHEMBL4190254

Quick reference for inhibition among some compounds
# tgt: Core antigen (Hepatitis B virus) (UniProt Q03732)
# Sequence (Q03732 as listed by the source): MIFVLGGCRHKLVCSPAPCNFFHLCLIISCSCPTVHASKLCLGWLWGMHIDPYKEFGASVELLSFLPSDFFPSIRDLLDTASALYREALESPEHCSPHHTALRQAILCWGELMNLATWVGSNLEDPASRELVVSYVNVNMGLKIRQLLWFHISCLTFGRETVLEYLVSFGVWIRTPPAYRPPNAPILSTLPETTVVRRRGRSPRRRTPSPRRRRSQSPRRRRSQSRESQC
# measurementNotes: Inhibition of capsid in HBV infected in human HepAD38 cells assessed as reduction in cccDNA formation by measuring reduction in HBe antigen secretion at 10 uM after 14 days by ELISA relative to control
# Type: cell-based
measurementType: inhibition (%)

O=C(Nc1ccc(F)c(F)c1)c1cc(NS(=O)(=O)C2CC2)ccc1F : 61
O=C(Nc1ccc(F)c(F)c1)c1cc(NS(=O)(=O)C2CCCC2)ccc1F : 66
O=C(Nc1ccc(F)c(F)c1)c1cc(NS(=O)(=O)C2CCCCC2)ccc1F : 67
